# maps each entry to its inhibition
Target: Glucose transporter (Leishmania mexicana)
Experiment: ST_JUDE_LEISH: Cytotoxicity at 2uM final concentration against transgenic Leishmania Mexicana promastigotes LmGT2 that are glucose transport deficient and complemented with the L. Mexicana glucose transporter 2. Activity is measured by DNA content using SYBR green in vitro
Assay type: functional
Only the number, expressed in %, is required.

# annotated cases, reported inhibition shown
CCc1cc2c(=O)c(-c3nc(C)cs3)c(N)oc2c(CN2CCCCC2)c1O	3.34
Cc1cc(NCCCCCCCCNc2cc(C)nc3ccccc23)c2ccccc2n1	0.69
CN1CCCN(Cc2ccc(-c3ccc(NS(=O)(=O)c4cccc5cccnc45)cc3)cc2)CC1	0.05

// inhibition value for COc1ccc2ncc(C#N)c(CCN3CCC(NCc4ccc5c(c4)NC(=O)CO5)CC3)c2c1 : 8.73

// inhibition value for Cc1ccc(-c2nnc(Nc3ccc(OCC(N)=O)cc3)c3ccccc23)cc1S(=O)(=O)NCC1CCCO1 (stereo not given) : 2

// inhibition value for c1ccc(CCNCc2ccc(-c3ccc(CNc4ccc5ncccc5c4)cc3)cc2)cc1 : 2.13

// inhibition value for CCc1cn(C)c2c(N3CCCC3=O)cc(C(=O)N[C@@H](Cc3ccccc3)[C@H](O)CNC(C)(C)CCCC(C)C)cc12 : 3.95

// inhibition value for COc1ccc2nccc([C@@H](O)CN3CCC(NCc4ccc5c(c4)oc(=S)n5C)CC3)c2c1 : 1.46

// inhibition value for CCOc1ccc(C(C)NC(=O)Nc2ccccc2)cc1OCC (stereo not given) : 2.96

// inhibition value for O=C(C=Cc1ccc(Cl)c(Cl)c1)NCCCCCN1CCCC(CCCNC(=O)c2sc3ccccc3c2Cl)C1 (stereo not given) : -0.49

====

# maps each entry to its inhibition
Target: Glucose transporter (Leishmania mexicana)
Assay: ST_JUDE_LEISH: Cytotoxicity at 2uM final concentration against transgenic Leishmania Mexicana promastigotes LmGT2 that are glucose transport deficient and complemented with the L. Mexicana glucose transporter 2. Activity is measured by DNA content using SYBR green in vitro
Type: functional
Only the number, expressed in %, is required.

CCn1c(-c2nonc2N)nc2cnc(Oc3cccc(NC(=O)c4ccc(OCCCN5CCCCC5)cc4)c3)cc21	6.29
COc1c(C2CCN(CCCCNC(=O)c3oc(-c4ccc(Cl)cc4)cc3CO)CC2)ccc2c1CCCC2	3.08

Attention now shifts to the item below.
// inhibition value for COc1ccc(-c2cccc(NC(=O)c3ccccc3)c2)cc1CN1CCCN(C)CC1 : 2.04

====

# maps each entry to its inhibition
Biological target: Solute carrier family 2, facilitated glucose transporter member 1 (Homo sapiens) (UniProt P11166)
Sequence (P11166 whole entry): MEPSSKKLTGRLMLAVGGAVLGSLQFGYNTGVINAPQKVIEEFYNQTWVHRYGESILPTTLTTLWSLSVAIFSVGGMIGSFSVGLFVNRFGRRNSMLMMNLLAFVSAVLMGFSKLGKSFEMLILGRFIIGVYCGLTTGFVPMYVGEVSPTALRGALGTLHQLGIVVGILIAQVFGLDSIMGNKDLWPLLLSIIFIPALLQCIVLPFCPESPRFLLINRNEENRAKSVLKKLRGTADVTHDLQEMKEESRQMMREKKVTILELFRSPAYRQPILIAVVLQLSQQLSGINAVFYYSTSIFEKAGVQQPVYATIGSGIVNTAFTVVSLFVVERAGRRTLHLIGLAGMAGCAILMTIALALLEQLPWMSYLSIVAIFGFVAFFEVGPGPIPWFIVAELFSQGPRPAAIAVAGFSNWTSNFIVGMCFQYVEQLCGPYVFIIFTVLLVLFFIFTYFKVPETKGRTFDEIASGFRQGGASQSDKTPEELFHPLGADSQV
Test: ST_JUDE_LEISH: Cytotoxicity at 2uM final concentration against transgenic Leishmania Mexicana promastigotes LmGLUT1 that are glucose transport deficient and complemented with the human glucose transporter GLUT1. Activity is measured by DNA content using SYBR green in vitro
Format: functional
Only the number, expressed in %, is required.

N#Cc1ccc(N2CCN(Cc3ccc(-c4ccc(-c5nc6ccccc6[nH]5)s4)cc3)CC2)nc1	6.79
COC(=O)c1cccc(NC(=O)NC2CCN(c3ccnc(Nc4ccc(OC)cc4)n3)C2)c1 (stereo not drawn)	0.29
O=C(Nc1cccc(-c2cccc(-c3nc4cc(C(F)(F)F)ccc4[nH]3)c2)c1)c1csnn1	12.8
COc1ccc(OC)c(NC(=O)c2c(-c3c(F)cccc3Cl)noc2C)c1	5.12
O=C(Nc1ccc(C(=O)N2CCN(CCN3CCN(c4cccc(C(F)(F)F)c4)CC3)CC2)cc1)c1ccc(C(F)(F)F)cc1	2.54
NCC1(c2nc(-c3ccc(Cl)c(O)c3)c(-c3ccncc3)[nH]2)CCCCC1	3.72
O=C(NCc1ccc(Cl)c(Cl)c1)c1cc(CNC2CCNCC2)ccc1O	0.91
COc1ccc(NC(=O)N2CCCN(CCCCCNC(=O)/C=C/c3ccc(C(F)(F)F)cc3)CC2)cc1Cl	-0.26

// inhibition value for O=C(Nc1cccc(CN2CCCN(Cc3ccc(O)cc3)CC2)c1)c1ccc(-c2ccccc2)cc1 : 1.14

Cited source for all entries: ChEMBL document CHEMBL3433997
